B1: H2-Kb / B16 (parent)
chain 1: QQQVRQSPQSLTVWEGGTTVLTCSYEDSTFNYFPWYQQFPGEGPALLISILSVSDKKEDGRFTTFFNKREKKLSLHIIDSQPGDSATYFCAARGSALGRLHFGAGTQLIVIP
chain 2: EAAVTQSPRSKVAVTGGKVTLSCHQTNNHDYMYWYRQDTGHGLRLIHYSYVADSTEKGDIPDGYKASRPSQENFSLILELASLSQTAVYFCASSDGTNQAPLFGEGTRLSVL
chain 3: not shown
chain 4: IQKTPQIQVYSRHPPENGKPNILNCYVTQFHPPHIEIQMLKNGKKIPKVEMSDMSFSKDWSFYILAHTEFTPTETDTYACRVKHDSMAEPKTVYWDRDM
chain 5: SIINFEKL

Variants of: B1
test_summary: % of reporter cells activated (NFAT-GFP), raw; note: test concentration or dose not given here
measurement_setup: with B16; scale: % of reporter cells activated
measurement_type: ratio to parent

Problem: Using known records, supply ratio to parent for chain 5 N4G
Solution: 1.35

Problem: Using known records, supply ratio to parent for chain 5 N4H
Solution: 1.26

Problem: Using known records, supply ratio to parent for chain 5 F5Y
Solution: 1.31

Problem: Using known records, supply ratio to parent for chain 5 K7E
Solution: 1.16

Problem: Using known records, supply ratio to parent for chain 5 N4R
Solution: 0.969

Problem: Using known records, supply ratio to parent for chain 5 I2S
Solution: 1.34

Problem: Using known records, supply ratio to parent for chain 5 K7Y
Solution: 0.996

Problem: Using known records, supply ratio to parent for chain 5 I3L
Solution: 1.28

Problem: Using known records, supply ratio to parent for chain 5 N4A
Solution: 1.39

Problem: Using known records, supply ratio to parent for chain 5 N4D
Solution: 1.19

Problem: Using known records, supply ratio to parent for chain 5 I3V
Solution: 1.07

Problem: Using known records, supply ratio to parent for chain 5 I3R
Solution: 0.807

Problem: Using known records, supply ratio to parent for chain 5 S1C
Solution: 1.57

Problem: Using known records, supply ratio to parent for chain 5 S1W
Solution: 0.941

Problem: Using known records, supply ratio to parent for chain 5 F5T
Solution: 1.4

Problem: Using known records, supply ratio to parent for chain 5 E6Q
Solution: 1.5

Problem: Using known records, supply ratio to parent for chain 5 L8Q
Solution: 1.04

Problem: Using known records, supply ratio to parent for chain 5 N4L
Solution: 1.48

Problem: Using known records, supply ratio to parent for chain 5 L8M
Solution: 0.799

Problem: Using known records, supply ratio to parent for chain 5 S1L
Solution: 1.11

Problem: Using known records, supply ratio to parent for chain 5 S1D
Solution: 1.29

Problem: Using known records, supply ratio to parent for chain 5 I3T
Solution: 1.24

Problem: Using known records, supply ratio to parent for chain 5 S1H
Solution: 1.37

Problem: Using known records, supply ratio to parent for chain 5 I2A
Solution: 1.49

Problem: Using known records, supply ratio to parent for chain 5 N4T
Solution: 1.04

Problem: Using known records, supply ratio to parent for chain 5 S1G
Solution: 1.43

Problem: Using known records, supply ratio to parent for chain 5 I2F
Solution: 1.2

Problem: Using known records, supply ratio to parent for chain 5 E6H
Solution: 1.39

Problem: Using known records, supply ratio to parent for chain 5 I3A
Solution: 1.55

Problem: Using known records, supply ratio to parent for chain 5 K7T
Solution: 0.665

Problem: Using known records, supply ratio to parent for chain 5 S1V
Solution: 1.16

Problem: Using known records, supply ratio to parent for chain 5 K7F
Solution: 1.01

Problem: Using known records, supply ratio to parent for chain 5 I3G
Solution: 1.22

Problem: Using known records, supply ratio to parent for chain 5 I3C
Solution: 1.52

Problem: Using known records, supply ratio to parent for chain 5 S1N
Solution: 1.09

Problem: Using known records, supply ratio to parent for chain 5 I3W
Solution: 1.08

Problem: Using known records, supply ratio to parent for chain 5 F5N
Solution: 1.21

Problem: Using known records, supply ratio to parent for chain 5 F5V
Solution: 0.945

Problem: Using known records, supply ratio to parent for chain 5 E6K
Solution: 1.12

Problem: Using known records, supply ratio to parent for chain 5 I3N
Solution: 1.37

Problem: Using known records, supply ratio to parent for chain 5 I2Y
Solution: 1.3

Problem: Using known records, supply ratio to parent for chain 5 I2E
Solution: 1.47

Problem: Using known records, supply ratio to parent for chain 5 E6T
Solution: 1.4

Problem: Using known records, supply ratio to parent for chain 5 L8K
Solution: 0.827

Problem: Using known records, supply ratio to parent for chain 5 F5P
Solution: 1.74

Problem: Using known records, supply ratio to parent for chain 5 N4E
Solution: 1.25

Problem: Using known records, supply ratio to parent for chain 5 I2Q
Solution: 1.21

Problem: Using known records, supply ratio to parent for chain 5 N4K
Solution: 1.37

Problem: Using known records, supply ratio to parent for chain 5 L8T
Solution: 0.787

Problem: Using known records, supply ratio to parent for chain 5 K7S
Solution: 0.657

Problem: Using known records, supply ratio to parent for chain 5 I2K
Solution: 1.52

Problem: Using known records, supply ratio to parent for chain 5 K7V
Solution: 0.823

Problem: Using known records, supply ratio to parent for chain 5 I2W
Solution: 1.35

Problem: Using known records, supply ratio to parent for chain 5 I2P
Solution: 1.48

Problem: Using known records, supply ratio to parent for chain 5 K7W
Solution: 0.496

Problem: Using known records, supply ratio to parent for chain 5 I3M
Solution: 1.4

Problem: Using known records, supply ratio to parent for chain 5 L8R
Solution: 1.28

Problem: Using known records, supply ratio to parent for chain 5 E6L
Solution: 1.21

Problem: Using known records, supply ratio to parent for chain 5 L8V
Solution: 0.697

Problem: Using known records, supply ratio to parent for chain 5 I2V
Solution: 1.33

Problem: Using known records, supply ratio to parent for chain 5 I2M
Solution: 1.11

Problem: Using known records, supply ratio to parent for chain 5 I2D
Solution: 1.19

Problem: Using known records, supply ratio to parent for chain 5 K7G
Solution: 1.06

Problem: Using known records, supply ratio to parent for chain 5 I3D
Solution: 1.13

Problem: Using known records, supply ratio to parent for chain 5 L8W
Solution: 0.689

Problem: Using known records, supply ratio to parent for chain 5 L8H
Solution: 1.1

Problem: Using known records, supply ratio to parent for chain 5 I3Q
Solution: 1.5

Problem: Using known records, supply ratio to parent for chain 5 F5W
Solution: 1.26

Problem: Using known records, supply ratio to parent for chain 5 L8E
Solution: 0.547

Problem: Using known records, supply ratio to parent for chain 5 N4I
Solution: 1.25

Problem: Using known records, supply ratio to parent for chain 5 S1A
Solution: 1.54

Problem: Using known records, supply ratio to parent for chain 5 S1T
Solution: 1.36

Problem: Using known records, supply ratio to parent for chain 5 S1F
Solution: 1.35

Problem: Using known records, supply ratio to parent for chain 5 F5E
Solution: 1.52

Problem: Using known records, supply ratio to parent for chain 5 N4M
Solution: 1.21

Problem: Using known records, supply ratio to parent for chain 5 K7P
Solution: 1.02

Problem: Using known records, supply ratio to parent for chain 5 N4P
Solution: 1.25

Problem: Using known records, supply ratio to parent for chain 5 N4Y
Solution: 0.87

Problem: Using known records, supply ratio to parent for chain 5 I2R
Solution: 0.921

Problem: Using known records, supply ratio to parent for chain 5 S1Q
Solution: 1.28
